Entries and their measured EC50 (read off the curve) follow.
Molecular target: T1, VEGF-121-His (inhouse production) (human, UniProt P15692 207-395)
T1 construct: His-tagged human VEGF-A121 used in the ELISAs and (captured by an anti-His antibody) in SPR; also called hVEGF-A121; his VEGF; not shown: His tag
T1 sequence: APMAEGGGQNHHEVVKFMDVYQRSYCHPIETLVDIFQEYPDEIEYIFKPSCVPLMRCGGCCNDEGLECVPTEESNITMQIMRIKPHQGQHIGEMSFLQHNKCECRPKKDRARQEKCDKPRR
Assay: direct ELISA on plate-coated VEGF-121-His
Procedure: After washing 3 times with 90 μl/well PBST-buffer (bidest water, 10×PBS Roche #11666789001+0.1% Tween® 20) blocking buffer (bidest water, 10×PBS Roche #11666789001+2% Bovine Serum Albumin Fraction V, fatty acid free, Roche, #10735078001+0.05% Tween® 20) was added 90 μl/well and incubated for 1 h at room temperature. […] After 3 min incubation at RT, signals were detected at 370 nm/492 nm on a Tecan Safire 2 Reader.
measured.property: EC50 (read off the curve)

binder	measured.property	result
VEGF-0089 Fab fragment (Fab, V domains shown, also called antibody VEGF-0089) VH: EVQLVESGGGLVQPGGSLRLSCAASGFTFTNYAMTWVRQAPGKGLEWVSSIGNGGGIYTYYADSVKGRFTISRDNSKNTLYLQMNSLRAEDTAVYYCAKGDNLFDSWGPGTLVTVSS VL: DIQMTQSPASLSASVGDRVTITCRASQSIYSSLNWYQQKPGKAPKLLIYASTLQSGVPSRFSGSASGTDFTLTISSLQPEDVATYYCQQYQNFPRTFGQGTKLEIKR	EC50 (read off the curve)	~0.2 nM
VEGF-0114 Fab fragment (Fab, V domains shown, Fab with rabbit derived CLkappa and CH1; also called VEGR-0114 Fab) VH: EVQLVESGGGLVQPGGSLRLSCAASGFTFTNYAMTWVRQAPGKGLEWVSSIGSGGFYTYYADSVKGRFTISRDNSKNTLYLQMNSLRAEDTAVYYCAKGDNLFDSWGPGTLVTVSS VL: DIQMTQSPASLSASVGDRVTITCRASQSIYSSLNWYQQKPGKAPKLLIYASTLQSGVPSRFSGSASGTDFTLTISSLQPEDVATYYCQQYQNFPRTFGQGTKLEIKR	EC50 (read off the curve)	~0.3 nM
L3H6 Fab fragment (Fab, V domains shown, Prior art antibody disclosed in WO 2012089176, made here as Fab) VH: QVQLVQSGAEVKKPGESLKISCKGSGYSFTSYWIGWVRQMPGKGLEWMGIIYPGDSDTRYSPSFQGQVTISADKSISTAYLQWSSLKASDTAMYYCARQGTHNRKIWGQGTMVTVSS VL: QAVVTQEPSLTVSPGGTVTLTCASSTGAVTSGNYPNWFQQRPGQPPRALIYSTSNKHSWTPARFSGSLLGGKAALTLSGAQPEDEAEYYCRLSYDLARPVFGGGTKLTVLG	EC50 (read off the curve)	~0.3 nM
VEGF-0113 Fab fragment (Fab, V domains shown, Variant of VEGF-0089 (G to P at position 6 of H-CDR2); Fab with rabbit derived CLkappa and CH1) VH: EVQLVESGGGLVQPGGSLRLSCAASGFTFTNYAMTWVRQAPGKGLEWVSSIGNGPGIYTYYADSVKGRFTISRDNSKNTLYLQMNSLRAEDTAVYYCAKGDNLFDSWGPGTLVTVSS VL: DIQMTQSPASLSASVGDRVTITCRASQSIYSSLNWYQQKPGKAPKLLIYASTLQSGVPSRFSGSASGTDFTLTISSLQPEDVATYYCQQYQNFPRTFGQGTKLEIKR	EC50 (read off the curve)	~0.3 nM
